- Test system: RXF 393 renal
- assay-details: NCI-60 one-dose screen, 48 h (100 = growth as untreated, 0 = no growth, -100 = all killed)
- condition-info: 10 µM
- Experimental: Cells are grown in 96 well plates and exposed to the test compound for 48 hours. Compounds are tested at a single concentration, which is 10^-5 M for most compounds. The reported endpoint is percent growth (GI% or GIPRCNT), where numbers from 0 - 100% represent growth inhibition, and numbers from -100% - 0 represent cell death. For example, a value of 40 represents 60% growth inhibition. A value of 0 means no net growth occurred over the course of the experiment. […]
Compounds without any hit were thinned out: in the full panel of roughly 83,000, 20% have a hit.
Recorded growth, one value per entry.
Output spec: scalar in %, unitless text.

INSERT INTO measurements (compound, measured) VALUES
  ('COc1cc([C@@H]2c3cc4c(cc3[C@H](SC(=N)N)[C@H]3COC(=O)[C@H]23)OCO4)cc(OC)c1OC', 27.1),
  ('CCCCCCCCCCN=C(c1ccc(N(C)C)cc1)c1ccc(N(C)C)cc1', 3.59);

Please look up its growth: N=C(N)c1ccc(-c2ccc(-c3ccccc3)s2)s1 -93.2

Returns the measured growth for the input compound. Input: CCCCCC(=O)N1c2ccccc2NC2=C(C(=O)CC(c3ccc(OC)c(OC)c3)C2)C1c1ccc(C(F)(F)F)cc1 (stereo not given) 1.04

Form field: reported growth of N/C(=N\O)c1cn(C2OC(CO)C(O)C2O)c2ncnc(N)c12 (stereo not given) -9.98

Fill blank: measured growth of the compound N#Cc1ncc(-c2cc(F)ccc2F)c(NC2CCCCCC2)n1 is ____. 82.8

Which growth is listed for Nc1nsc(C(=O)c2ccc(O)cc2)n1 ? 120

Look at this compound and give its reported growth. NC1CCC(Nc2nc(NCc3ccc(-c4ccccc4O)nc3)c3ncn(C4CCCC4)c3n2)CC1 (stereo not given) -67.4

What does the record list as growth for COc1ccc(-c2nnc(SCC(=O)c3ccccc3)o2)cc1 ? 94.2

# lookup: growth of O=NN(CC(=O)N/N=C/C=C\c1ccccc1)CC(=O)N/N=C/C=C/c1ccccc1 71.3

====

- System: U251 CNS
- assay-details: NCI-60 one-dose screen, 48 h (100 = growth as untreated, 0 = no growth, -100 = all killed)
- condition-info: 10 µM
The panel holds about 83,000 compounds, 20% with a hit somewhere; the sample as a whole holds those more often.
Below, each entry is listed with its recorded growth.
Numbers only; they are read as %.

Known results for compounds:
INSERT INTO results (compound, measured) VALUES
  ('COc1ccc(-c2oncc2-c2cc(OC)c3c(c2)OCO3)cc1', 28),
  ('COc1c(-c2c3sc(=O)[nH]c3nc3c2c(=O)[nH]n3C(C)C)cc2c(c1OC)OCO2', 97.9),
  ('CCOc1nc(-c2ccccc2)cc2c(O)c(C(=O)NCCCO)[nH]c(=O)c12', 100),
  ('CCC(CCNc1cc(OC)cc2cccnc12)CN1C(=O)c2ccccc2C1=O (stereo not given)', 102);

Report growth for COc1cc2nc(Sc3sc(N)nc3C)n(-c3ccc(Oc4ccccc4)cc3)c(=O)c2cc1OC please. 87.6

Which growth value is on record for C#Cc1ccc(-n2c(/C=C/c3cc(OC)c(OC)c(OC)c3)nc3ncccc3c2=O)cc1 ? 79.3

For the compound shown here, O=NN(CC(=O)N/N=C/C=C\c1ccccc1)CC(=O)N/N=C/C=C/c1ccccc1 , give the reported growth. 89

Any idea what its growth is? The compound is Nc1cc(O)cc(O)c1 104

What does the record list as growth for O=C(NCc1cn(Cc2cccc(Oc3ccccc3)c2)nn1)c1cccnc1Nc1ccccc1 ? 42.2

Would you kindly share the measured growth for NC1CCC(Nc2nc(NCc3ccc(-c4cccs4)nc3)c3ncn(C4CCCC4)c3n2)CC1 (stereo not given) ? 3.21

====

- System: UO-31 renal
- assay-details: NCI-60 one-dose screen, 48 h
- condition-info: 10 µM
- Protocol: Growth inhibition of the UO-31 human tumor cell line is measured as a screen for anti-cancer activity. Cells are grown in 96 well plates and exposed to the test compound for 48 hours. Compounds are tested at a single concentration, which is 10^-5 M for most compounds. The reported endpoint is percent growth (GI% or GIPRCNT), where numbers from 0 - 100% represent growth inhibition, and numbers from -100% - 0 represent cell death. For example, a value of 40 represents 60% growth inhibition. […]
This is part of a sample that, as a whole, favours compounds with a hit. Of some 83,000 tested, about 20% had one in any assay. The source made the active and inactive calls. How the source made its calls: active means growth percent below 10; inactive means the rest.
Permitted responses: active, inactive

Please review the entries below; each comes with its answer.
INSERT INTO assay_data (compound, assigned_category) VALUES
  ('CCc1c(C)[nH]c(=O)c(C(N)=O)c1C#N', 'inactive'),
  ('COc1cc(-c2nc3ccccc3[nH]2)ccc1OCC(=O)N=Nc1c(O)[nH]c2ccccc12', 'inactive'),
  ('C=CCOc1ccc2c(c1)CC=C1[C@@H]2CC[C@]2(C)C(=O)/C(=N/O)C[C@@H]12', 'inactive'),
  ('O=C(CCl)N1c2ccccc2Sc2ccc3ccccc3c21', 'active'),
  ('CS(=O)(=O)Nc1ccc([N+](=O)[O-])cc1Oc1ccccc1', 'inactive');

What was the test verdict on COC1OC2COC(c3ccccc3)OC2C(=O)C1NC(=O)c1ccccc1 (stereo unspecified) ? inactive

Please share the test call associated with Nc1cc2c(cc1Cl)-c1ccc(Cl)cc1C2=O . inactive

What outcome does the record of this test show for COCc1cc2c(cc1Br)OCO2 ? inactive

Called result for CC1=CC2OC34COC3CC(OC(=O)C(F)(F)F)C4(C)C2(C)CC1 (stereo unspecified) inactive

Assay outcome for COc1ccc2oc(=O)cc(C(c3ccc[nH]3)c3ccc[nH]3)c2c1 : what was it? inactive

Recorded test outcome, item Cc1cc(C)c2c(Nc3ncnc4c3sc3nc(C)cc(C)c34)n[nH]c2n1 inactive

====

- Tested on: SF-295 CNS
- assay-details: NCI-60 one-dose screen, 48 h (100 = growth as untreated, 0 = no growth, -100 = all killed)
- condition-info: 10 µM
This is part of a sample that, as a whole, favours compounds with a hit. Of some 83,000 tested, about 20% had one in any assay.
measurement-label: growth (%)
Use % as the unit, but write only the number.

Answered examples (5):
INSERT INTO assay_data (compound, measurement_label, measured) VALUES
  ('CCOC(=O)C1=C(Nc2ccc(OC)cc2)C(N)=NC1=N', 'growth', 54.8),
  ('Nc1ncc(-c2ccc(C(F)(F)F)cc2)c(NC2CCCCCC2)n1', 'growth', -20.9),
  ('O=C1/C(=C/c2ccc([N+](=O)[O-])s2)Oc2ccc(Cl)cc21', 'growth', -16.2),
  ('O=NN(CCCl)C(=O)NCc1ccc(-c2ccc(CNC(=O)N(CCCl)N=O)cc2)cc1', 'growth', 83.2),
  ('CCN(CC)CCn1c(=N)n(CC(O)c2ccc(Cl)c(Cl)c2)c2ccccc21 (stereo unspecified)', 'growth', 103);

Which value of growth has been reported for COC(=O)c1cnc2c(c1)Oc1ccc(Cl)cc1-c1cc(C)nn1-2 in the records? 92.3

Look up growth: CC(=O)Nc1ccc2c(c1)C(N1CC3CCC(CC3)C1)c1ccccc1-2 (stereo unspecified) 101

Record request: growth value, item CNC(=S)Sc1ccc([N+](=O)[O-])cc1[N+](=O)[O-] 95.1

====

- System: COLO 205 colon
- assay-details: NCI-60 one-dose screen, 48 h
- condition-info: 10 µM
The panel holds about 83,000 compounds, 20% with a hit somewhere; the sample as a whole holds those more often. Active and inactive are the calls of the source. The calls were made as follows: active = growth percent below 10; inactive = the rest.
# output must be one of active, inactive

Would you please look over these solved cases?
INSERT INTO assay_data (compound, assigned_category) VALUES
  ('COc1ccc(/C=C2\CCC3C(CCCC34OCCO4)C2=O)cc1 (stereo unspecified)', 'inactive'),
  ('O=C(N/N=C\c1cc(Cl)ccc1O)c1ccncc1', 'inactive'),
  ('COC(=O)c1cnc2c(c1)Oc1ccccc1-c1ccnn1-2', 'inactive');

So what was the verdict on Cc1ccc2nc3[nH]c(=O)[nH]c(=O)c3c(N)c2c1 in this test? inactive

In this assay, the call recorded for O/N=C1\CCC2CCCCC2C1 (stereo unspecified) was what? inactive

Tell me the recorded outcome of this test for C[N+]1=C(/C=C/c2ccc(I)cc2)C(C)(C)c2ccccc21 . inactive

Write down the call the test reported for this compound. Item: CC(=O)c1c(O)cc2c3c1OC(C)(C)C1CCC(C)(CC31)O2 (stereo unspecified) inactive

Outcome? O=C1NN(c2ccccc2)C(c2cccnc2)=N/C1=C\c1cccnc1 inactive

Hey, what did the test say about Cc1ccc(S(=O)(=O)Nc2cccc3[nH]c(C(F)(F)F)nc23)cc1 ? active

I would be grateful if you could indicate the recorded call for O=c1c2cccc3c(Nc4ccc(Br)cn4)ccc(c32)c2nc3ccccc3n12 . inactive

// return assay outcome for N#CC1C=Cc2c(ccc3ccccc23)N1C(=O)c1ccccc1 (stereo unspecified) active
